# ASSAY_TEXT: recombinant UMI read abundance after kanamycin selection (control-corrected) (log10(CPM+1)); higher = more efficient recombination; extreme values may be limits of the assay; sequences stand for … in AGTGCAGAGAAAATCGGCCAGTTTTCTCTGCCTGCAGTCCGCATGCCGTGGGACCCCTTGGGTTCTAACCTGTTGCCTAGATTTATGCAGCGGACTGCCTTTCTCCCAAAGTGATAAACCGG…AGGTTGGTTTCACT; site = the 11-nt donor;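 further: IS621 bridge recombinase in Escherichia coli cells against a fixed T5 target plasmid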
ASSAY_READOUT: recombinant UMI read abundance (log10)
Give bare numbers.

Okay, here is my list. What is recombinant UMI read abundance (log10) for each of these?
1. AATCACGCATGGACCGGTTTTCCCGGTAATCCGTATTTGGG (site AATCACGCTCC)
2. AAGCACGCATGGACCGGTTTTCCCGGTAATCCGTATTTGGA (site AAGCACGCTCC)
3. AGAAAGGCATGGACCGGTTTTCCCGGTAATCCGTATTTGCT (site AGAAATGCTAG)

Result:
1. 0.0109
2. 0.0219
3. 0

# per-item lookup of recombinant UMI read abundance (log10); items listed below
1. TGTACACCATGGACCGGTTTTCCCGGTAATCCGTATTTGAG (site TGTACACCTAT)
2. TAGGGACCATGGACCGGTTTTCCCGGTAATCCGTATTTGGT (site TAGGGACCTAC)
3. ACGGTTTCATGGACCGGTTTTCCCGGTAATCCGTATTTGCA (site ACAGTATCTTG)
4. AGTAAGACATGGACCGGTTTTCCCGGTAATCCGTATTTGAA (site AGTAAGACTTT)
5. TTTGCGGCATGGACCGGTTTTCCCGGTAATCCGTATTTGGT (site TTTGCGGCTAA)
6. CCTTGCACATGGACCGGTTTTCCCGGTAATCCGTATTTGAG (site CCTTGCACTCT)
7. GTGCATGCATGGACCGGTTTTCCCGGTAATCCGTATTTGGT (site GTGCGTGCTAC)

Result:
[0.0116, 0.00346, 2.71, 1.27, 0.0207, 0.0135, 0.276]
